Tested on: Caspase 3
experimental details: Caspase 3 detection assay in SJSA1 cells
Format: cell-based
stated conditions: 3 μM, SJSA1, 48 h, Caspase 3 activation over DMSO-treated cells
Bridge positions count the residues as written; N and C are the ends. Square brackets hold non-standard residues; d marks the D form. Peptide text beside a SMILES is read from it. R8 = C=CCCCCCC[C@@](C)(N)C(=O)O; S5 = C=CCCC[C@](C)(N)C(=O)O
Short version: caspase 3 μM at least 2 is True, less is False.

# compound, target desc, label
data = [
    ("CC[C@H](C)[C@H](NC(=O)[C@H](C)NC(=O)[C@H](C)NC(=O)[C@]1(C)CCCC=CCCCCCC[C@@](C)(NC(=O)[C@H](Cc2ccccc2)NC(=O)[C@@H](NC(=O)[C@H](CC(C)C)NC(C)=O)[C@@H](C)O)C(=O)N[C@@H](C)C(=O)N[C@@H](Cc2c[nH]cn2)C(=O)N[C@@H](Cc2c[nH]c3ccccc23)C(=O)N[C@@H](C)C(=O)N[C@@H](CCC(N)=O)C(=O)N[C@@H](CC(C)C)C(=O)N1)C(=O)N[C@H](C)C(N)=O [compound 170] (Ac-LTF[R8]AHWAQL[S5]AAI[dA]-NH2; staple 4-11)", "Caspase 3", "False"),
    ("CC[C@H](C)[C@H](NC(=O)[C@H](C)NC(=O)[C@H](C)NC(=O)[C@]1(C)CCCC=CCCCCCC[C@@](C)(NC(=O)[C@H](Cc2ccccc2)NC(=O)[C@@H](NC(=O)[C@H](CC(C)C)NC(C)=O)[C@@H](C)O)C(=O)N[C@@H](C)C(=O)N[C@@H](Cc2ccc(O)cc2)C(=O)N[C@@H](Cc2c[nH]c3ccccc23)C(=O)N[C@@H](C)C(=O)N[C@@H](CCC(N)=O)C(=O)N[C@@H](CC(C)C)C(=O)N1)C(=O)N[C@H](C)C(N)=O (single isomer, unassigned)", "Caspase 3", "False"),
    ("CC(=O)N[C@@H](CC(C)C)C(=O)N[C@H](C(=O)N[C@@H](Cc1ccccc1)C(=O)N[C@]1(C)CCCCCCC=CCCC[C@@](C)(C(=O)N[C@@H](C)C(=O)N[C@@H](Cc2c[nH]cn2)C(=O)N[C@@H](Cc2ccccc2)C(=O)N[C@@H](C)C(N)=O)NC(=O)[C@H](CC(C)C)NC(=O)[C@H](CCC(N)=O)NC(=O)[C@H](C)NC(=O)[C@H](Cc2c[nH]c3ccccc23)NC(=O)[C@H](Cc2c[nH]cn2)NC(=O)[C@H](C)NC1=O)[C@@H](C)O [compound 183] (Ac-LTF[R8]AHWAQL[S5]AHFA-NH2; staple 4-11)", "Caspase 3", "False"),
    ("CC(=O)N[C@@H](C)C(=O)N[C@@H](C)C(=O)N[C@@H](CC(C)C)C(=O)N[C@H](C(=O)N[C@@H](Cc1ccccc1)C(=O)N[C@]1(C)CCCCCCC=CCCC[C@@](C)(C(=O)N[C@@H](CO)C(=O)N[C@@H](C)C(=O)N[C@@H](C)C(=O)N[C@@H](C)C(=O)N[C@H](C)C(N)=O)NC(=O)[C@H](CC2CCC2)NC(=O)[C@H](CCC(N)=O)NC(=O)[C@H](C)NC(=O)[C@H](Cc2c[nH]c3ccccc23)NC(=O)[C@H](Cc2ccc(O)cc2)NC(=O)[C@H](CCC(=O)O)NC1=O)[C@@H](C)O (single isomer, unassigned) [compound 358]", "Caspase 3", "True"),
    ("CC(=O)N[C@@H](CCC(=O)O)C(=O)N[C@H](C(=O)N[C@@H](Cc1ccccc1)C(=O)N[C@]1(C)CCCCCCC=CCCC[C@@](C)(C(=O)N[C@@H](CO)C(=O)N[C@@H](CC(C)C)C(=O)N[C@@H](C)C(N)=O)NC(=O)[C@H](CC(C)C)NC(=O)[C@H](CCC(N)=O)NC(=O)[C@H](C)NC(=O)[C@H](Cc2c[nH]c3ccccc23)NC(=O)[C@H](Cc2ccc(O)cc2)NC(=O)[C@H](C(C)C)NC1=O)[C@@H](C)O [compound 127] (Ac-ETF[R8]VYWAQL[S5]SLA-NH2; staple 4-11)", "Caspase 3", "False"),
    ("CC(=O)N[C@@H](CCC(=O)O)C(=O)N[C@H](C(=O)N[C@@H](Cc1ccccc1)C(=O)N[C@]1(C)CCCCCCC=CCCC[C@@](C)(C(=O)N[C@@H](CO)C(=O)N[C@@H](C)C(=O)N[C@@H](C)C(N)=O)NC(=O)[C@H](CC(C)C)NC(=O)[C@H](CCC(N)=O)NC(=O)[C@H](C)NC(=O)[C@H](Cc2c[nH]c3ccccc23)NC(=O)[C@H](Cc2ccc(O)cc2)NC(=O)[C@H](CCC(=O)O)NC1=O)[C@@H](C)O [compound 161] (Ac-ETF[R8]EYWAQL[S5]SAA-NH2; staple 4-11)", "Caspase 3", "True"),
    ("CC(=O)N[C@@H](CC(C)C)C(=O)N[C@H](C(=O)N[C@@H](Cc1ccccc1)C(=O)N[C@]1(C)CCCCCCC=CCCC[C@@](C)(C(=O)N[C@@H](CO)C(=O)N[C@@H](C)C(=O)N[C@@H](C)C(=O)N[C@H](C)C(N)=O)NC(=O)[C@H](CC2CCC2)NC(=O)[C@H](CCC(N)=O)NC(=O)[C@H](C)NC(=O)[C@H](Cc2c[nH]c3ccccc23)NC(=O)[C@H](Cc2ccc(O)cc2)NC(=O)[C@H](CCC(=O)O)NC1=O)[C@@H](C)O (single isomer, unassigned)", "Caspase 3", "True"),
]

Data provenance: patent US20200369728A1
